# EXPERIMENT_DESCRIPTION: Stability test: half-life for deprotection in 80% acetic acid (Table 2)
# Format: physicochemical
# CONDITION_INFO: 30 mmolar solution, 20° C., Values +/- 5%
// boundary case: t1/2 (half-life for deprotection) equal to 100 min maps to false; strictly smaller maps to true

Please let me know if CC(OCc1cc(Cl)c(OC(=O)C(C)(C)C)cc1Cl)O[C@@H]1[C@H](O)[C@@H](CO)O[C@H]1n1ccc(=O)[nH]c1=O (stereo partly shown) shows t1/2 (half-life for deprotection) below 100 min.
false

New cases:
Is 100 min strictly greater than the compound's reported t1/2 (half-life for deprotection)? compound: CC(OCc1ccc(OC(=O)OCCc2ccc([N+](=O)[O-])cc2)c(F)c1)O[C@@H]1[C@H](O)[C@@H](CO)O[C@H]1n1ccc(=O)[nH]c1=O (stereo partly shown)
false

Given CC(OCc1ccccc1)O[C@@H]1[C@H](O)[C@@H](CO)O[C@H]1n1ccc(=O)[nH]c1=O (stereo partly shown) [drawing 64] , is recorded t1/2 (half-life for deprotection) strictly lower than 100 min?
true

Dear colleague, could you confirm whether t1/2 (half-life for deprotection) of CC(OCc1cc(Cl)c(OC(=O)OCCc2ccc([N+](=O)[O-])cc2)cc1Cl)O[C@@H]1[C@H](O)[C@@H](CO)O[C@H]1n1ccc(=O)[nH]c1=O (stereo partly shown) falls below 100 min? Thanks.
false

Bench note: check whether CC(OCc1ccc(O)c(Cl)c1)O[C@@H]1[C@H](O)[C@@H](CO)O[C@H]1n1ccc(=O)[nH]c1=O (stereo partly shown) shows t1/2 (half-life for deprotection) below 100 min
true

Dear colleague, could you confirm whether t1/2 (half-life for deprotection) of CC(OCc1ccc(OC(=O)OCCc2ccc([N+](=O)[O-])cc2)cc1)O[C@@H]1[C@H](O)[C@@H](CO)O[C@H]1n1ccc(=O)[nH]c1=O (stereo partly shown) falls below 100 min? Thanks.
false

# TODO verify t1/2 (half-life for deprotection) < 100 min strictly for this compound: CC(OCc1cc(Cl)c(O)cc1Cl)O[C@@H]1[C@H](O)[C@@H](CO)O[C@H]1n1ccc(=O)[nH]c1=O (stereo partly shown)
false

----------
# EXPERIMENT_DESCRIPTION: Stability test: half-life for deprotection in 80% acetic acid (Table 2)
# Type: physicochemical
# CONDITION_INFO: 30 mmolar solution, 20° C., Values +/- 5%
Recorded measurements of t1/2 (half-life for deprotection), one per entry
Hi! Could you send only the number? It should be in min, unit omitted.

Here's what some known entries look like.
GET /value?item= CC(OCc1ccc(O)c(F)c1)O[C@@H]1[C@H](O)[C@@H](CO)O[C@H]1n1ccc(=O)[nH]c1=O (stereo partly drawn) &field=t1/2 (half-life for deprotection) returns 48

// CC(OCc1ccc(O)cc1)O[C@@H]1[C@H](O)[C@@H](CO)O[C@H]1n1ccc(=O)[nH]c1=O (stereo partly drawn) : t1/2 (half-life for deprotection) value = 21

Here's the next entry for you.
Summary for this compound, CC(OCc1c(Cl)cccc1Cl)O[C@@H]1[C@H](O)[C@@H](CO)O[C@H]1n1ccc(=O)[nH]c1=O (stereo partly drawn) : t1/2 (half-life for deprotection) is 1128

----------
# EXPERIMENT_DESCRIPTION: Stability test: half-life for deprotection in 0.05N HCl/MeOH (Table 1)
# Assay type: physicochemical
# CONDITION_INFO: 0.05N HCl/MeOH (1:2), 30 mmolar solution, 20° C., pH 2.0; values +/- 10%
READOUT_LABEL: t1/2 (half-life for deprotection) (h)
Supply the numeric figure in h, leaving out any unit text.

Summary for this molecule, COc1ccc(COC(C)O[C@@H]2[C@H](O)[C@@H](CO)O[C@H]2n2ccc(=O)[nH]c2=O)cc1 (stereo partly drawn) : t1/2 (half-life for deprotection) is 1.22

The value of t1/2 (half-life for deprotection) measured for the molecule CC(OCCS(C)(=O)=O)O[C@@H]1[C@H](O)[C@@H](CO)O[C@H]1n1ccc(=O)[nH]c1=O (stereo partly drawn) turned out to be 52

What the record says about CC(OCCN1C(=O)c2ccccc2C1=O)O[C@@H]1[C@H](O)[C@@H](CO)O[C@H]1n1ccc(=O)[nH]c1=O (stereo partly drawn) : t1/2 (half-life for deprotection) is 14

Short answer for CC(OCc1ccccc1[N+](=O)[O-])O[C@@H]1[C@H](O)[C@@H](CO)O[C@H]1n1ccc(=O)[nH]c1=O (stereo partly drawn) : t1/2 (half-life for deprotection) was 37.33

Sample COc1ccc(COC(C)O[C@@H]2[C@H](O)[C@@H](CO)O[C@H]2n2ccc(=O)[nH]c2=O)cc1OC (stereo partly drawn) ; t1/2 (half-life for deprotection) observed: 1.37

The measured t1/2 (half-life for deprotection) associated with CC(OCCS(=O)(=O)c1ccccc1)O[C@@H]1[C@H](O)[C@@H](CO)O[C@H]1n1ccc(=O)[nH]c1=O (stereo partly drawn) reads 52

Below: the item to evaluate.
The reported value for CC(OCc1ccccc1)O[C@@H]1[C@H](O)[C@@H](CO)O[C@H]1n1ccc(=O)[nH]c1=O (stereo partly drawn) [drawing 52] in terms of t1/2 (half-life for deprotection) is 2.92
